Data origin, for the record: ChEMBL document CHEMBL4190389

Give measured pKi for each item. Keep answers brief.
Molecular target: 5-hydroxytryptamine receptor 6 (Homo sapiens, UniProt P50406)
Sequence (P50406 whole entry): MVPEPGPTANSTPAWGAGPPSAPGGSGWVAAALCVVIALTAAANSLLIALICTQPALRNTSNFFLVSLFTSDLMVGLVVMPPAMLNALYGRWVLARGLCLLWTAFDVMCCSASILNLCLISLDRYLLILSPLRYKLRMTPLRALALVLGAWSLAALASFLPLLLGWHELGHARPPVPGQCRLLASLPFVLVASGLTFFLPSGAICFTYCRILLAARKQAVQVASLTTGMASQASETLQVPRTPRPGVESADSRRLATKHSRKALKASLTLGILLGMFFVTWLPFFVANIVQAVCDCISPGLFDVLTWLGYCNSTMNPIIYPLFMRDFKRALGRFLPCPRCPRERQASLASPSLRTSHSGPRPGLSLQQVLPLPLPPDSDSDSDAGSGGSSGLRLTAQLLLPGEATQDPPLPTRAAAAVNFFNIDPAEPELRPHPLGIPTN
Test: Displacement of [3H]LSD from recombinant human 5-HT6 receptor expressed in CHO cells cell membranes after 60 mins by liquid scintillation counting method
pKi: −log10 of the molar value.

The molecule listed as Cc1cc(C)c(C)c(OCCOCCN2CCN(CCO)CC2)c1.Cl.Cl has a reported pKi of < 5.30

The molecule listed as Cc1cc(C)c(OCCOCCN2CCN(Cc3ccccc3)CC2)c(C)c1.Cl.Cl has a reported pKi of < 5.30

The molecule listed as COc1ccccc1N1CCN(CCCOc2ccc(C)cc2C)CC1.Cl has a reported pKi of < 5.30

The molecule listed as Cc1cc(OCCCN2CCN(c3ccccc3)CC2)ccc1Cl.Cl.Cl has a reported pKi of < 5.30

The molecule listed as Cc1cc(C)c(OCCOCCN2CCN(CCO)CC2)c(C)c1.Cl.Cl has a reported pKi of < 5.30

The molecule listed as COc1ccc(N2CCN(CCCOc3c(C)cc(C)cc3C)CC2)cc1.Cl.Cl has a reported pKi of < 5.30
